The compounds below have reported IC50 for UniProtKB P09874.
Sequence (P09874 whole entry): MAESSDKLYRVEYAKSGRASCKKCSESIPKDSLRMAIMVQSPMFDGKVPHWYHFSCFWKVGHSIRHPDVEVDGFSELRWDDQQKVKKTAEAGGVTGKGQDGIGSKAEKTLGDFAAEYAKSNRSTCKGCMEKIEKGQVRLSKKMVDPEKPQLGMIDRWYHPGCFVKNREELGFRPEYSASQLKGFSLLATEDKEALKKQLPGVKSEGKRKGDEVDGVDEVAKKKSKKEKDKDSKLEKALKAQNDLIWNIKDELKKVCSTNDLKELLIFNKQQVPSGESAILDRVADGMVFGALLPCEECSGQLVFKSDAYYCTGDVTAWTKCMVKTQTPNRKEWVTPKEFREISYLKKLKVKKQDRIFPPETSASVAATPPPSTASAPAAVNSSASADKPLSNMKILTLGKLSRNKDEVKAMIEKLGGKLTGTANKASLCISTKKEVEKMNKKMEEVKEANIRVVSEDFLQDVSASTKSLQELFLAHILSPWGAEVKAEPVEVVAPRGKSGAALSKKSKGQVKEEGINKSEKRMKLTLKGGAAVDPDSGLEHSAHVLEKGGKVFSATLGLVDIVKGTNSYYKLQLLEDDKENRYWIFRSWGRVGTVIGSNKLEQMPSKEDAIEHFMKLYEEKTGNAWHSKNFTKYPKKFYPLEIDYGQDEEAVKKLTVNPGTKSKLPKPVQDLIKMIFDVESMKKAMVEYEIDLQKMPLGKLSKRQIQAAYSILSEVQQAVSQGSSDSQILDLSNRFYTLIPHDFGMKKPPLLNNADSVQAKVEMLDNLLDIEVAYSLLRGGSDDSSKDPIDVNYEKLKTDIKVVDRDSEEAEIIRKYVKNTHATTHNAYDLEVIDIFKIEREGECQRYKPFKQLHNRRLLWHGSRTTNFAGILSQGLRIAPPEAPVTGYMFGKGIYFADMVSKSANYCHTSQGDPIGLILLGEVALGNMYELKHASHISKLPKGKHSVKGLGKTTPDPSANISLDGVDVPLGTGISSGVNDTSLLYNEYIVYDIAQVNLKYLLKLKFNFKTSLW
Report only the number, with the unit nM understood.

Recorded results for 4 compounds are shown here.
• Cc1nc2ccc(CN3CC=C(c4ccc(C(=O)NC5CC5)nc4F)CC3)c(F)c2[nH]c1=O = 37
• Cc1nc2ccc(CN3CCN(c4ccc(C(=O)NC56CC(C5)C6)nc4F)CC3)c(F)c2[nH]c1=O = 18
• Cc1nc2ccc(CN3CCN(c4ccc(C(=O)N[C@H]5C[C@H](F)C5)nc4F)CC3)c(F)c2[nH]c1=O = 5.2
• CNC(=O)c1ccc(C2=CCN(Cc3ccc4nc(C)c(=O)[nH]c4c3F)CC2)c(F)n1 = 15

Provide IC50, tested on UniProtKB P09874, for `Cc1nc2ccc(CN3CCN(c4ccc(C(=O)NCC(F)F)nc4F)CC3)c(F)c2[nH]c1=O` .
18

Please respond with reported IC50 (system UniProtKB P09874) for `CNC(=O)c1ccc(C2CCN(Cc3ccc4nc(C)c(=O)[nH]c4c3F)CC2)c(F)n1` .
16

* * *

- Test system: MDA-MB-436 (mutated BRCA1) cell lines
- test.method.notes: Cell growth inhibition assay (CellTiter-Glo cell viability)
- Assay type: cell-based
- assay.conditions: Homo sapiens, 168 h; MDA-MB-436 cells, 7 days, CellTiter Glo 2.0
observable: pEC50
On this scale, pEC50 is minus log10 of a concentration expressed in M (mol/L).

* Cc1nc2ccc(CN3CCN(c4ccc(C(=O)N[C@H]5C[C@H](F)C5)nc4F)CC3)c(F)c2[nH]c1=O | 8.42

Quote pEC50 reported for `CCc1nc2ccc(CN3CCN(c4ccc(C(=O)NCCOC)nc4F)CC3)c(F)c2[nH]c1=O` please.
8.28

Tell me pEC50 reported for Cc1nc2ccc(CN3CCN(c4ccc(C(=O)N[C@H]5CC5(F)F)nc4F)CC3)c(F)c2[nH]c1=O (single isomer, unassigned)
8.51

Please give measured pEC50 of the following entry: `Cc1nc2ccc(CN3CCN(c4ccc(C(=O)NC5CC(F)(F)C5)nc4F)CC3)c(F)c2[nH]c1=O`
8.30

* * *

Measured Papp B→A at 2 h, 10 μM, listed per entry.
- measured.on: BCRP (Homo sapiens)
- Construct: expressed in transfected cells; host or cells: MDCKII (Madin-Darby canine kidney) cells
- Sequence (Q9UNQ0 1-655): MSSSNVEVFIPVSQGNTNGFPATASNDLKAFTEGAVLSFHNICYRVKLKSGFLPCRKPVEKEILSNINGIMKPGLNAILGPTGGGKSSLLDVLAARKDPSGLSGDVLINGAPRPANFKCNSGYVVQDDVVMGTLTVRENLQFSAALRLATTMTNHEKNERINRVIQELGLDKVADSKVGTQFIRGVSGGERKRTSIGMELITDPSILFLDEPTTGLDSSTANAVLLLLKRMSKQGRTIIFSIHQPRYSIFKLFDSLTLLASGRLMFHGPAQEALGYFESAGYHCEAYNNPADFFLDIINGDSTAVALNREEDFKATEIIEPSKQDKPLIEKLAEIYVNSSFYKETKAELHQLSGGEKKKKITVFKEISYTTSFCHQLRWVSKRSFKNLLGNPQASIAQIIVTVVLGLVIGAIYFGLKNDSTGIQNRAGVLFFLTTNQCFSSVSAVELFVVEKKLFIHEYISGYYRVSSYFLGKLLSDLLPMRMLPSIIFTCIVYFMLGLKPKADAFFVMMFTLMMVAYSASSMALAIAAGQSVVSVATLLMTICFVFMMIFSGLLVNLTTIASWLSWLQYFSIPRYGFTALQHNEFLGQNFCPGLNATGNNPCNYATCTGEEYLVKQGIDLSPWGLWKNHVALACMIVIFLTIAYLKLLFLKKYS
- test.method.notes: In vitro human transporter efflux, MDCKII cells expressing BCRP
- Assay type: in vitro ADME
- assay.conditions: pH 7.4, read-out: BCRP Papp BA
Note: unit ×10⁻⁶ cm/s is implicit; provide only the numeric part.

• Cc1nc2ccc(CN3CCN(c4ccc(C(=O)N[C@@H]5CC5(F)F)nc4F)CC3)c(F)c2[nH]c1=O (single isomer, unassigned) [Example 21] = 19.4
• Cc1nc2ccc(CN3CCN(c4ccc(C(=O)NC5CC5)nc4F)CC3)c(F)c2[nH]c1=O [Example 1] = 24.1

For Cc1nc2ccc(CN3CCN(c4ccc(C(=O)NCC(F)F)nc4F)CC3)c(F)c2[nH]c1=O [Example 19] , write its Papp B→A at 2 h, 10 μM.
20.2

Just for reference, patent US20250171418A1 is where these values come from.
